Target: HPK1 (Homo sapiens, UniProt Q92918)
Sequence (Q92918 1-346 limits assumed): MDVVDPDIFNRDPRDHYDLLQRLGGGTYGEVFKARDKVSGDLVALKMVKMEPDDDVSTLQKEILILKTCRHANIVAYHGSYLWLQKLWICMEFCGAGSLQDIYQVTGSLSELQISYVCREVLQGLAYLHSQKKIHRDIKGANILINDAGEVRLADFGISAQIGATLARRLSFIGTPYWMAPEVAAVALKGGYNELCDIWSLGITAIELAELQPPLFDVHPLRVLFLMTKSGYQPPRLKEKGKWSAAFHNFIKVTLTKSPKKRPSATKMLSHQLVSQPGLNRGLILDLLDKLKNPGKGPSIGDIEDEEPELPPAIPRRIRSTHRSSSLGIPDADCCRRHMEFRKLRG
Test: HPK1 kinase activity assay (ADP-Glo)
Conditions: HPK1 Kinase activity IC50 (nM), 1 nM HPK1, 10 μM ATP, 0.1 μg/μL MBP
Measure Name: IC50 (nM)
Report the value in nM with no unit label.

- Molecule: "Cc1cc(C(=O)N2CCc3cc(-c4cnc5[nH]cc(C)c5c4)cc([C@@H]4CCCN4)c3C2)ccn1 [Compound Z213]"
  Measurement Target: "HPK1 (Homo sapiens, UniProt Q92918)"
  Measurement Units: "nM"
  IC50: 0.64
- Molecule: "CN(C)C(=O)c1ccc(-c2c[nH]c3ncc(-c4cc5c(c([C@@H]6CCCN6)c4)COCC5)cc23)cn1 [Compound Z54-1]"
  Measurement Target: "HPK1 (Homo sapiens, UniProt Q92918)"
  Measurement Units: "nM"
  IC50: 0.6
- Molecule: "COC(=O)N1CCc2c(cc(-c3cnc4[nH]cc(C)c4c3)cc2[C@@H]2CCCN2)C1 [Compound Z305]"
  Measurement Target: "HPK1 (Homo sapiens, UniProt Q92918)"
  Measurement Units: "nM"
  IC50: 0.84

Entry under review: CN(C)Cc1cc(-c2cnc3[nH]cc(C(=O)NCC4(CO)CCC4)c3c2)cc2c1COCC2 [Compound Z107] . Reported IC50? 5.79

Please look up its IC50: c1cn2ccc(-c3c[nH]c4ncc(-c5cc6c(c([C@@H]7CCCN7)c5)COCC6)cc34)cc2n1 [Compound Z323] 0.49

For Cc1c[nH]c2ncc(-c3cc4c(c([C@@H]5CCCN5)c3)CCN(C(=O)[C@](C)(O)C(F)(F)F)C4)cc12 [Compound Z285-1] , what is its reported IC50? 0.87

Quick check: IC50 of c1cncc(-c2c[nH]c3ncc(-c4cc5c(c([C@@H]6CCCN6)c4)COCC5)cc23)c1 [Compound Z199] ? 0.32

----------
Molecular target: HPK1 (Homo sapiens, UniProt Q92918)
Sequence (Q92918 1-346 limits assumed): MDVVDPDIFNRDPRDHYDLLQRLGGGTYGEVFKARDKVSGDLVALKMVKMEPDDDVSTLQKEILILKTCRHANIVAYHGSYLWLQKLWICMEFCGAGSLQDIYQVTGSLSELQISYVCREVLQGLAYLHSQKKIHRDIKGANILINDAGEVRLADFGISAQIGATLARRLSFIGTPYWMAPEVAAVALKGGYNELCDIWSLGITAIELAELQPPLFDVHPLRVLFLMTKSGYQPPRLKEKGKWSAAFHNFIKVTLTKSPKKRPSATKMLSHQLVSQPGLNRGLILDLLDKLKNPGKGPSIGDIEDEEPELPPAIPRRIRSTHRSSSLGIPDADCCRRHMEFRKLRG
Test: HPK1 kinase activity assay (ADP-Glo)
Details: HPK1 Kinase activity IC50 (nM), 1 nM HPK1, 10 μM ATP, 0.1 μg/μL MBP
# if measured IC50 < 0.4 nM: true  # else: false

Answered examples (3):
- Compound: "Cc1c[nH]c2ncc(-c3cc4c(c([C@@H]5CCCN5)c3)CN(C(=O)C3CCOC3)CC4)cc12 (some centres unmarked)"
  Measurement Target: "HPK1 (Homo sapiens, UniProt Q92918)"
  Discrete Label: "false"
- Compound: "Cc1c[nH]c2ncc(-c3cc4c(c(CN5CCOCC5)c3)COCC4)cc12"
  Measurement Target: "HPK1 (Homo sapiens, UniProt Q92918)"
  Discrete Label: "false"
- Compound: "Cc1c[nH]c2ncc(-c3cc4c(c([C@@H]5CCCN5)c3)CN(C(=O)[C@H]3CCOC3)CC4)cc12"
  Measurement Target: "HPK1 (Homo sapiens, UniProt Q92918)"
  Discrete Label: "true"

Would you kindly verify if IC50 of CCN1Cc2c(cc(-c3cnc4[nH]cc(C)c4c3)cc2[C@@H]2CCCN2)C1=O is strictly less than 0.4 nM? false

----------
target: HPK1 (Homo sapiens); experiment: HPK1 kinase activity assay (ADP-Glo); conditions: HPK1 Kinase activity IC50 (nM), 1 nM HPK1, 10 μM ATP, 0.1 μg/μL MBP
Measure Name: IC50 (nM)
Provide the reading as a plain figure in nM.

# annotated cases, reported IC50 shown
- Compound: "COCC(=O)N1CCc2cc(-c3cnc4[nH]cc(C)c4c3)cc([C@@H]3CCCN3)c2C1 [Compound Z121]"
  Measurement Units: "nM"
  Recorded Result: 0.5
- Compound: "Cc1c[nH]c2ncc(-c3cc4c(c([C@@H]5CCCN5)c3)CCN(C(=O)[C@@](C)(O)C(F)(F)F)C4)cc12 [Compound Z285]"
  Measurement Units: "nM"
  Recorded Result: 0.91

For the next question, use this compound.
Quick check: IC50 of Cc1c[nH]c2ncc(-c3cc4c(c([C@@H]5CCCN5)c3)CN(c3ccncc3)CC4)cc12 [Compound Z291] ? 0.6

----------
Form field: log10 IC50 (one value per entry).
target: HPK1 (Homo sapiens); assay: SLP76 phosphorylation assay (intracellular HPK1 inhibitory activity, p-SLP76 Ser376 sandwich ELISA); settings: p-SLP76 IC50(nM), Jurkat, Clone E6-1 cells; 1 h compound pre-incubation, anti-CD3 beads stimulation 20 min; SLP76 phosphorylation at S376
Sequence (Q92918 whole entry): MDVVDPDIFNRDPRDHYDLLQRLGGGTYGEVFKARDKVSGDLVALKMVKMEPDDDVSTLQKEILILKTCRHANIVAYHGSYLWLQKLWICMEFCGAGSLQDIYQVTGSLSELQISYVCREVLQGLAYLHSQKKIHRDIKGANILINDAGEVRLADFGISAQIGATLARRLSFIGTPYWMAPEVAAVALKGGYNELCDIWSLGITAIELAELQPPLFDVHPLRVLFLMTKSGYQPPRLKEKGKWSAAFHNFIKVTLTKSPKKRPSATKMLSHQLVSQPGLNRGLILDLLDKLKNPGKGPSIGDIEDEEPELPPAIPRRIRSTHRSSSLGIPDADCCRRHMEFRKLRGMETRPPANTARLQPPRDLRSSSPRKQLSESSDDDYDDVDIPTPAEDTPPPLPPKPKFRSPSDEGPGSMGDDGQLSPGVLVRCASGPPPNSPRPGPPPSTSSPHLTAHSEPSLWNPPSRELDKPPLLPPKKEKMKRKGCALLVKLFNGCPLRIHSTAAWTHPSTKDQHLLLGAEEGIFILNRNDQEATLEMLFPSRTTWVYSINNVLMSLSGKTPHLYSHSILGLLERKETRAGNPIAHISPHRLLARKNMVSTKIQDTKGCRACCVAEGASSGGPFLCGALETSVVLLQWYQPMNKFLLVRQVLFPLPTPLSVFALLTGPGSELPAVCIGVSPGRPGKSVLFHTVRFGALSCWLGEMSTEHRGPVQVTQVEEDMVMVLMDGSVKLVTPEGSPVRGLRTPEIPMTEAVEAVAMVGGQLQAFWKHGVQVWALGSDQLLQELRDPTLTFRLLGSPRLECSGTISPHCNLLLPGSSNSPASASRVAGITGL
Friendly reminder: values = log10 of IC50, unit nM.

Would you please look over these solved cases?
- Molecule: "Cc1c[nH]c2ncc(-c3cc4c(c(C5COC(N)=N5)c3)COCC4)cc12 (centres unmarked) [Compound Z243]"
  log10 IC50: 3.40
- Molecule: "Cc1c[nH]c2ncc(-c3cc4c(c([C@@H]5CCCN5)c3)CN(C(=O)c3cnn(CC(F)F)c3)CC4)cc12 [Compound Z306]"
  log10 IC50: 2.23
- Molecule: "C[C@](O)(C(=O)N1CCc2cc(-c3cnc4[nH]cc(Cl)c4c3)cc([C@@H]3CCCN3)c2C1)C(F)(F)F [Compound Z405]"
  log10 IC50: 1.95
- Molecule: "CC(=O)N1CCc2cc(-c3cnc4[nH]cc(C)c4c3)cc(C3COCCN3)c2C1 (centres unmarked) [Compound Z119]"
  log10 IC50: 2.55
- Molecule: "Cc1c[nH]c2ncc(-c3cc4c(c([C@@H]5CCCN5)c3)CN(C(=O)N3CCO[C@H](C)C3)CC4)cc12 [Compound Z359-2]"
  log10 IC50: 1.99
- Molecule: "COc1cc(C(=O)N2CCc3cc(-c4cnc5[nH]cc(C)c5c4)cc([C@@H]4CCCN4)c3C2)ccn1 [Compound Z215]"
  log10 IC50: 2.65

Record request: log10 IC50 value, item Cc1c[nH]c2ncc(-c3cc([C@@H]4CCCN4)c4ccccc4n3)cc12 [Compound Z136] 3.90

Would you mind telling me what log10 IC50 value was observed for Cc1c[nH]c2ncc(-c3cc4c(c([C@@H]5CCCN5)c3)CN(C(=O)c3ccn(C)n3)CC4)cc12 [Compound Z223] ? 2.48

Find the recorded log10 IC50 belonging to Cc1c[nH]c2ncc(-c3cc4c(c([C@@H]5CCCN5)c3)CN(C(=O)C3CCOCC3)CC4)cc12 [Compound Z127] and report it. 2.31

Entry Cc1c[nH]c2ncc(-c3cc4c(c([C@@H]5CCCN5)c3)CN(C(=O)NC3CC3)CC4)cc12 [Compound Z250] : reported log10 IC50 = ? 2.29

----------
IC50 values for the compounds below.
biological target: HPK1 (Homo sapiens); test: SLP76 phosphorylation assay (intracellular HPK1 inhibitory activity, p-SLP76 Ser376 sandwich ELISA); conditions: p-SLP76 IC50(nM), Jurkat, Clone E6-1 cells; 1 h compound pre-incubation, anti-CD3 beads stimulation 20 min; SLP76 phosphorylation at S376
Unit nM implied. Number only.

Recorded results for 5 compounds are shown here.
- Compound: "CC(=O)N1CCc2cc(-c3cnc4[nH]cc(C)c4c3)cc([C@@H]3COCCN3)c2C1 (single isomer, unassigned)"
  IC50 (nM): 390
- Compound: "Cc1c[nH]c2ncc(-c3cc4c(c(C5COCCN5)c3)CN(C(=O)[C@](C)(O)C(F)(F)F)CC4)cc12 (stereo partly drawn)"
  IC50 (nM): 223
- Compound: "CCN1Cc2c(cc(-c3cnc4[nH]cc(C)c4c3)cc2[C@@H]2CCCN2)NC1=O"
  IC50 (nM): 279
- Compound: "Cc1c[nH]c2ncc(-c3cc4c(c([C@@H]5CCCN5)c3)CCN(C(=O)C(C)(C)O)C4)cc12"
  IC50 (nM): 254
- Compound: "COC(=O)N1CCc2cc(-c3cnc4[nH]cc(C)c4c3)cc([C@@H]3CCCN3)c2C1"
  IC50 (nM): 265

Find IC50 (HPK1 (Homo sapiens)) for the entry Cc1c[nH]c2ncc(-c3cc4c(c([C@@H]5CCCN5)c3)CN(C(=O)c3ccncn3)CC4)cc12 215
